Let's look at some compounds and their measured melting point.
readout-label: melting point

• N#CCC(=O)c1c(Cl)cccc1Cl = 63 to 65 °C
• CCCc1[nH]ncc1C(=O)O = 207 to 209 °C
• COCC1(O)CCNCC1 = 54 to 56 °C
• Nc1ccc(NC(=O)c2ccccc2I)cc1 = 143 to 145 °C

----------
Let's look at some compounds and their measured melting point.
readout-label: melting point

• COc1ccc(C=C[N+](=O)[O-])cc1Cl = 95 to 97 °C
• CC(C)OCc1c(C(=O)O)oc2ccccc12 = 131 to 133 °C
• O=C1NCCNC1c1ccc(C(F)(F)F)cc1 (stereo not given) = 141 to 143 °C
• CC(C)NO = 73 to 75 °C
• Nc1nnc(Cc2ccccc2Cl)o1 = 196 to 198 °C
• CN(c1ccccc1C(=O)O)S(C)(=O)=O = 146 to 148 °C
• CCCc1c(C(=O)O)cnn1C1CCCC1 = 113 to 115 °C
• O=C(O)C1CSCN1C(=O)C1CCC1 (stereo not given) = 115 to 117 °C
• NC(=O)c1c(N)sc2c1CCC2 = 158 to 160 °C
• Cc1nc(S)c2c(C)c(C)sc2n1 = 193 to 195 °C

----------
readout-label: melting point

* CCOC(=O)Nc1ccc2c(CCl)cc(=O)oc2c1 | 247 to 249 °C
* CCNS(=O)(=O)c1ccc(Br)c(C(=O)O)c1 | 198 to 200 °C
* NC1=NNC(=O)C1c1ccccc1 (stereo not drawn) | 249 to 251 °C
* O=C(O)c1ccc(NCCO)cc1 | 196 to 198 °C
* NNc1nc(-c2ccccc2)no1 | 177 to 179 °C
* CC(C)(C)NS(=O)(=O)c1ccc(NN)nc1 | 124 to 126 °C
* Cc1ccn(-c2cccc(C(=O)O)c2)n1 | 198 to 200 °C
* NCc1cc(Br)c2c(c1)OCO2 | 49 to 51 °C

----------
readout-label: melting point

- Cc1cc(OS(C)(=O)=O)nc2c1cnn2C(C)C: 78 to 80 °C
- O=C(O)CSCc1ccc(Cl)cc1: 57 to 59 °C
- O=C(O)C1SCCS1: 84 to 86 °C
- CC(C(=O)O)C(C)(C)C (stereo unspecified): 34 to 36 °C
- CC(C)(C)Cc1cc(N)n(-c2ccccc2)n1: 95 to 97 °C
- CC(Oc1ccc(F)cc1Br)C(=O)O (stereo unspecified): 87 to 89 °C
- N#CCCn1cc(C(=O)O)c(-c2ccc([N+](=O)[O-])cc2)n1: 220 to 222 °C
- Cc1ccc(-c2nc(C=O)co2)cc1: 92 to 94 °C
- OC1COc2ccc(Br)cc21 (stereo unspecified): 79 to 81 °C
- NC(=S)c1ccnc(-n2cncn2)c1: 258 to 260 °C
- Clc1nncc2ccoc12: 117 to 119 °C
- Nc1cc(-c2ccco2)nn1-c1ccc(F)cc1F: 120 to 122 °C
- COc1ccc(-n2c(C)c(C)c3c(N)ncnc32)cc1: 231 to 233 °C
- CC(=O)N1CCC(C(=O)O)(c2ccccc2)CC1: 207 to 209 °C
- CC(=O)c1c(C)oc(N)c1C#N: 241 to 243 °C
- Cn1cnnc1CN: 32 to 34 °C
